In this section, each of the compounds is paired with its reported Activity.
assay: Cytotoxicity against rat RBL2H3 cells by MTT assay; type: cell-based; design: concentration or dose not given beside the values; conditions: rbl-2h3
Reply numerically in %, unit not repeated.

Reference set (3 entries):
compound: C[C@H]1[C@H](C)CC[C@]2(C(=O)O)CC[C@]3(C)C(=CC[C@@H]4[C@@]5(C)Cc6cnoc6C(C)(C)[C@@H]5CC[C@]43C)[C@H]12
Activity, %: 2.1
//
compound: COC(=O)C(CC(C)C)NC(=O)[C@]12CC[C@@H](C)[C@H](C)[C@H]1C1=CC[C@@H]3[C@@]4(C)CCC(=O)C(C)(C)[C@@H]4CC[C@@]3(C)[C@]1(C)CC2 (stereo partly drawn)
Activity, %: 2.6
//
compound: COC(=O)C(Cc1ccccc1)NC(=O)[C@]12CC[C@@H](C)[C@H](C)[C@H]1C1=CC[C@@H]3[C@@]4(C)Cc5nc6cc(Cl)c(Cl)cc6nc5C(C)(C)[C@@H]4CC[C@@]3(C)[C@]1(C)CC2 (stereo partly drawn)
Activity, %: 7.7

Consider the compound CCOC(=O)CNC(=O)[C@]12CC[C@@H](C)[C@H](C)[C@H]1C1=CC[C@@H]3[C@@]4(C)C=C(C#N)C(=O)C(C)(C)[C@@H]4CC[C@@]3(C)[C@]1(C)CC2 and give its measured Activity.
50.1

Consider the compound CCOC(=O)CNC(=O)[C@]12CC[C@@H](C)[C@H](C)[C@H]1C1=CC[C@@H]3[C@@]4(C)Cc5cnn(-c6ccc(F)cc6)c5C(C)(C)[C@@H]4CC[C@@]3(C)[C@]1(C)CC2 and give its measured Activity.
15.8

Consider the compound C[C@H]1[C@H](C)CC[C@]2(C(=O)O)CC[C@]3(C)C(=CC[C@@H]4[C@@]5(C)Cc6cnn(-c7ccc(F)cc7)c6C(C)(C)[C@@H]5CC[C@]43C)[C@H]12 and give its measured Activity.
1.5

Consider the compound COC(=O)C(CC(C)C)NC(=O)[C@]12CC[C@@H](C)[C@H](C)[C@H]1C1=CC[C@@H]3[C@@]4(C)Cc5c([nH]c6ccc(Br)cc56)C(C)(C)[C@@H]4CC[C@@]3(C)[C@]1(C)CC2 (stereo partly drawn) and give its measured Activity.
3

Consider the compound COC(=O)C(Cc1ccccc1)NC(=O)[C@]12CC[C@@H](C)[C@H](C)[C@H]1C1=CC[C@@H]3[C@@]4(C)Cc5cnn(-c6ccccc6)c5C(C)(C)[C@@H]4CC[C@@]3(C)[C@]1(C)CC2 (stereo partly drawn) and give its measured Activity.
0.9
